Test method notes: Evaluation of light fastness-1 (OD value of printed portion after 100 hours xenon fadeometer)
Type: physicochemical
Condition info: ink prepared as in Example 1 from the salt named in the row; OD value of printed portion after 100 hours xenon fadeometer
Assay readout: (A)-1 light fastness-1

- Cc1c(N=Nc2cc(S(=O)(=O)O)ccc2C(=O)O)c(O)n(CCC(=O)O)c(=O)c1C#N: ⊚
- Cc1c(N=Nc2cc(C(=O)O)ccc2C(=O)O)c(O)n(CCNC(=O)c2ccc(C(=O)NCCn3c(O)c(N=Nc4cc(C(=O)O)ccc4C(=O)O)c(C)c(C#N)c3=O)c(C(=O)NCCn3c(O)c(N=Nc4cc(C(=O)O)ccc4C(=O)O)c(C)c(C#N)c3=O)c2)c(=O)c1C#N: ⊚
- Cc1c(N=Nc2cccc(C(=O)O)c2C(=O)O)c(O)n(CCCC(=O)O)c(=O)c1C#N: ⊚
